Origin of measurements: patent US20240025849A1

- Tested on: primary cultured neonatal microglia
- Test Method Notes: LPS induced NO release, Griess assay, laboratory scaled setup
- Format: cell-based, mouse
- Run Parameters: Mus musculus, Microglia, inhibitors of NO production, murine primary cultured neonatal microglia; read-out: activity class (IC50)
pIC50: −log10 of the molar value.
Let's look at some compounds and their measured pIC50.
Observed Property: pIC50

[[record]]
smiles = "COc1ccc(NC(=O)[C@@H](NC(=O)[C@@H]2CCCN2C(=O)CCC2CCCCC2)c2ccc(OC)cc2)cc1"
reported = "> 7.30"

[[record]]
smiles = "COc1ccc(NC(=O)[C@@H](NC(=O)[C@@H]2CCN2C(=O)OCc2ccccc2)c2ccc(OC)cc2)cc1"
reported = "> 6.00"

[[record]]
smiles = "COc1ccc(NC(=O)[C@@H](NC(=O)[C@@H]2CCCN2C(=O)OCc2ccccc2)c2ccc(OC)cc2)cc1"
reported = "> 6.70"

[[record]]
smiles = "COc1ccc(NC(=O)[C@@H](NC(=O)[C@@H]2CCCN2C(=O)OCc2ccccc2)c2ccc(OCCOCCOCCOCCOCCOCCNC(=O)CCCC[C@@H]3SC[C@@H]4NC(=O)N[C@@H]43)cc2)cc1"
reported = "> 5.00"

[[record]]
smiles = "COc1ccc(NC(=O)[C@@H](NC(=O)[C@@H]2CCCN2C(=O)OC(C)(C)C)c2ccc(OC)cc2)cc1"
reported = "> 5.00"

[[record]]
smiles = "COc1ccc(NC(=O)[C@@H](NC(=O)[C@@H]2CCCN2C(=O)CCC2CCCC2)c2ccc(OC)cc2)cc1"
reported = "> 7.30"

